- system under test: human EP3 receptor (Homo sapiens, UniProt P43115)
- experimental details: Cellular in vitro assay for determining EP3 receptor activity (human EP3 cell line, sulprostone-stimulated calcium luminescence)
- study conditions: CHO cells expressing human EP3 and mitochondrial Clytin; antagonist mode, sulprostone at EC50; read-out: EP3 CHO mtCLY ANTAG IC50
measurement type: IC50 (nM)

{"compound": "Cc1cccc2ncc(-c3cn4nc(C(=O)N[C@H]5c6ccccc6C[C@H]5O)c(C(C)C)c4c(=O)[nH]3)cc12 [Example 4-69]", "system under test": "human EP3 receptor (Homo sapiens, UniProt P43115)", "measurement type": "IC50", "reported value": 2}
{"compound": "Cc1ccc(-c2cn3nc(C(=O)NC4(C)CCC4)cc3c(=O)[nH]2)cc1C [Example 5-5]", "system under test": "human EP3 receptor (Homo sapiens, UniProt P43115)", "measurement type": "IC50", "reported value": 6.7}
{"compound": "Cc1ccc(-c2cn3nc(C(=O)NC(C)CN4CCOCC4)c(C4CC4)c3c(=O)[nH]2)cc1C (single isomer, unassigned) [6-451]", "system under test": "human EP3 receptor (Homo sapiens, UniProt P43115)", "measurement type": "IC50", "reported value": 5.35}
{"compound": "COCc1c(C(=O)N[C@@H](c2ccc(F)cc2)C(C)(C)O)nn2cc(-c3ccc(Cl)c(F)c3)[nH]c(=O)c12 [6-625]", "system under test": "human EP3 receptor (Homo sapiens, UniProt P43115)", "measurement type": "IC50", "reported value": 9.95}
{"compound": "CN1CC(NC(=O)c2cc3c(=O)[nH]c(-c4ccc5c(c4)CCCC5)cn3n2)(c2ccc(F)cc2)C1 [Example 1-99]", "system under test": "human EP3 receptor (Homo sapiens, UniProt P43115)", "measurement type": "IC50", "reported value": 4}
{"compound": "CCN(CCO)CC(NC(=O)c1cc2c(=O)[nH]c(-c3ccc(C)c(C)c3)cn2n1)c1ccccc1 (stereo not shown) [Example 1-85]", "system under test": "human EP3 receptor (Homo sapiens, UniProt P43115)", "measurement type": "IC50", "reported value": 3}
{"compound": "CCCN1CC(NC(=O)c2nn3cc(-c4ccc5ccccc5c4)[nH]c(=O)c3c2C(F)(F)F)(c2ccc(F)cc2)C1 [Example 1-127]", "system under test": "human EP3 receptor (Homo sapiens, UniProt P43115)", "measurement type": "IC50", "reported value": 2.15}

---

Listed next: entries and their corresponding pIC50.
- system under test: human EP3 receptor (Homo sapiens)
- experimental details: Cellular in vitro assay for determining EP3 receptor activity (human EP3 cell line, sulprostone-stimulated calcium luminescence)
- study conditions: CHO cells expressing human EP3 and mitochondrial Clytin; antagonist mode, sulprostone at EC50; read-out: EP3 CHO mtCLY ANTAG IC50
pIC50: −log10 of the molar value.

{"compound": "COc1cc(-c2cn3nc(C(=O)N[C@H](C)C4CC4)c(C4CC4)c3c(=O)[nH]2)ccc1Cl", "system under test": "human EP3 receptor (Homo sapiens)", "pIC50": 9.00}
{"compound": "Cc1ccc(-c2cn3nc(C(=O)N[C@H]4CCOC4)c(C(F)(F)F)c3c(=O)[nH]2)cc1Cl", "system under test": "human EP3 receptor (Homo sapiens)", "pIC50": 8.27}
{"compound": "C[C@@H](NC(=O)c1cc2c(=O)[nH]c(-c3ccc4c(c3)N(C)CCO4)cn2n1)c1ccc(F)cc1", "system under test": "human EP3 receptor (Homo sapiens)", "pIC50": 8.87}
{"compound": "Cc1ccc(-c2cn3nc(C(=O)NC(CO)C(F)(F)F)c(C(F)(F)F)c3c(=O)[nH]2)cc1Cl (single isomer, unassigned) [6-163]", "system under test": "human EP3 receptor (Homo sapiens)", "pIC50": 8.64}
{"compound": "Cc1ccc(-c2cn3nc(C(=O)N[C@H](C)c4ccc(F)cc4)c(C4CC4)c3c(=O)[nH]2)cc1C", "system under test": "human EP3 receptor (Homo sapiens)", "pIC50": 8.92}
{"compound": "COc1ccc(C2(NC(=O)c3nn4cc(-c5ccc(C)c(Cl)c5)[nH]c(=O)c4c3C3CC3)CN(C)C2)cc1", "system under test": "human EP3 receptor (Homo sapiens)", "pIC50": 8.48}
{"compound": "Cc1cc(-c2cn3nc(C(=O)N[C@H](C)C4CC4)c(C(C)C)c3c(=O)[nH]2)ccc1Cl", "system under test": "human EP3 receptor (Homo sapiens)", "pIC50": 8.82}

---

- system under test: human EP3 receptor (Homo sapiens, UniProt P43115)
- experimental details: Cellular in vitro assay for determining EP3 receptor activity (human EP3 cell line, sulprostone-stimulated calcium luminescence)
- study conditions: CHO cells expressing human EP3 and mitochondrial Clytin; antagonist mode, sulprostone at EC50; read-out: EP3 CHO mtCLY ANTAG IC50
Listed next: entries and their corresponding IC50.
measurement type: IC50 (nM)

{"compound": "COc1ccc(C(C)NC(=O)c2cc3c(=O)[nH]c(-c4ccc5ccccc5c4)cn3n2)cn1 (stereo not shown)", "reported value": 2.26}
{"compound": "COCc1c(C(=O)N[C@@H](C)C2CC2)nn2cc(-c3ccc(Cl)c(C)c3)[nH]c(=O)c12", "reported value": 1.25}
{"compound": "Cc1ccc(-c2cn3nc(C(=O)NC(CN4CCOCC4)c4ccc(F)cc4)c(C4CC4)c3c(=O)[nH]2)cc1C (racemic)", "reported value": 1.45}
{"compound": "COc1ccc(-c2cn3nc(C(=O)N[C@@H](c4ccc(F)cc4)C(C)(C)O)c(C4CC4)c3c(=O)[nH]2)cc1F", "reported value": 0.83}
{"compound": "O=C(NCC(O)C(F)(F)F)c1nn2cc(-c3ccc(Cl)c(Cl)c3)[nH]c(=O)c2c1C1CC1 (racemic) [6-415]", "reported value": 1.05}
{"compound": "Cc1ccc(-c2cn3nc(C(=O)NCCN(CC(F)F)C4CC4)c(C4CC4)c3c(=O)[nH]2)cc1C", "reported value": 1.7}
{"compound": "Cc1nc(-c2cn3nc(C(=O)N[C@@H](c4ccc(F)cc4)C(F)(F)CO)c(C4CC4)c3c(=O)[nH]2)ccc1Cl", "reported value": 1.3}

---

- system under test: human EP3 receptor (Homo sapiens, UniProt P43115)
- Sequence (P43115 1-390): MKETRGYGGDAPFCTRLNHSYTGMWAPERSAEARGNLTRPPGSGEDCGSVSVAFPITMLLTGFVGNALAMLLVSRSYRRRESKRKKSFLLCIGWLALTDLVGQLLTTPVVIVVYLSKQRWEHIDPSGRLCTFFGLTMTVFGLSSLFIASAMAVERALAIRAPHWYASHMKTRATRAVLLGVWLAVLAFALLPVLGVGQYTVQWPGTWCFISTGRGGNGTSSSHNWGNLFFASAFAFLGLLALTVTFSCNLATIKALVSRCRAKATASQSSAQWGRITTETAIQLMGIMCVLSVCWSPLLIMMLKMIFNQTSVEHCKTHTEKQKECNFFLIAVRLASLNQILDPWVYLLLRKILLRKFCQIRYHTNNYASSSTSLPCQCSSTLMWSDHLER
- experimental details: Cellular in vitro assay for determining EP3 receptor activity (human EP3 cell line, sulprostone-stimulated calcium luminescence)
- study conditions: CHO cells expressing human EP3 and mitochondrial Clytin; antagonist mode, sulprostone at EC50; read-out: EP3 CHO mtCLY ANTAG IC50
pIC50: −log10 of the molar value. Where a name gives a salt, the structure may show the parent alone.
Listed next: entries and their corresponding pIC50.
measurement type: pIC50

{"molecule": "Cc1ccc(-c2cn3nc(C(=O)NCC(O)C(F)(F)F)c(C4CC4)c3c(=O)[nH]2)cc1F (single isomer, unassigned; enantiomer1) [Example 1-160]", "reported value": 8.45}
{"molecule": "Cc1ccc(-c2cn3nc(C(=O)NC(CCn4cncn4)c4ccccc4)cc3c(=O)[nH]2)cc1C (racemic) [Example 1-12]", "reported value": 8.78}
{"molecule": "Cc1cc(-c2cn3nc(C(=O)NC4CCN(C5CC5)C4)c(C(F)(F)F)c3c(=O)[nH]2)ccc1Cl (single isomer, unassigned) [6-241]", "reported value": 8.02}
{"molecule": "Cc1ccc(-c2cn3nc(C(=O)N[C@H]4c5ccccc5C[C@@H]4O)cc3c(=O)[nH]2)cc1C [Example 1-80]", "reported value": 8.18}
{"molecule": "C[C@@H](NC(=O)c1nn2cc(-c3cc(F)c(Cl)c(F)c3)[nH]c(=O)c2c1C1CC1)C1CC1 [6-473]", "reported value": 8.48}
{"molecule": "Cc1cccc2ncc(-c3cn4nc(C(=O)Nc5ccnn5C)c(C(C)C)c4c(=O)[nH]3)cc12 [Example 4-19]", "reported value": 8.76}
{"molecule": "CC[C@@H](C)NC(=O)c1nn2cc(-c3ccc(C)c(C)c3)[nH]c(=O)c2c1C(F)(F)F [6-113]", "reported value": 8.47}
{"molecule": "Cc1cc(-c2cn3nc(C(=O)N[C@H](C)C4CC4)c(C4CC4)c3c(=O)[nH]2)ccc1Cl [6-335]", "reported value": 8.74}
{"molecule": "Cc1cccc2ncc(-c3cn4nc(C(=O)NC(C)c5cccc(Br)c5)c(C(C)C)c4c(=O)[nH]3)cc12 (stereo not shown) [Example 4-62]", "reported value": 8.69}
{"molecule": "Cc1ccc(-c2cn3nc(C(=O)NC[C@@]4(C5CC5)NC(=O)NC4=O)c(C4CC4)c3c(=O)[nH]2)cc1C [6-456]", "reported value": 8.23}
{"molecule": "Cc1ccc(-c2cn3nc(C(=O)NC4(c5ccc(F)cc5)CN(CC(F)F)C4)c(C(F)(F)F)c3c(=O)[nH]2)cc1Cl [6-202]", "reported value": 9.01}
{"molecule": "CC(NC(=O)c1nn2cc(-c3ccc4ccccc4c3)[nH]c(=O)c2c1C(F)(F)F)c1ccc(OCC(F)(F)F)cn1 (stereo not shown) [Example 1-30, trifluoroacetic acid salt]", "reported value": 8.39}
{"molecule": "Cc1ccc(-c2cn3nc(C(=O)N[C@@H](CCO)c4ccc(F)cc4)c(C#N)c3c(=O)[nH]2)cc1C [Example 1-75]", "reported value": 8.06}
{"molecule": "Cc1c(C(=O)NCCOCC(F)(F)F)nn2c(C)c(-c3ccc4ccccc4c3)[nH]c(=O)c12 [Example 3-3]", "reported value": 8.27}
{"molecule": "COc1ccc(C(C)NC(=O)c2cc3c(=O)[nH]c(-c4ccc(C)c(C)c4)cn3n2)cn1 (stereo not shown) [Example 5-4]", "reported value": 8.60}
{"molecule": "Cc1ccc(-c2cn3nc(C(=O)NCC(O)(C(F)(F)F)C(F)(F)F)c(C4CC4)c3c(=O)[nH]2)cc1F [6-403]", "reported value": 9.16}
{"molecule": "Cc1ccc(-c2cn3nc(C(=O)NCC(C)(N)C(F)(F)F)c(C(F)(F)F)c3c(=O)[nH]2)cc1Cl (single isomer, unassigned) [6-171]", "reported value": 8.64}
{"molecule": "C[C@@H](NC(=O)c1cc2c(=O)[nH]c(-c3ccc4c(c3)COCC4)cn2n1)c1ccc(F)cc1 [Example 1-112]", "reported value": 8.47}
{"molecule": "CC(C)(O)[C@@H](NC(=O)c1nn2cc(-c3ccc4ccccc4c3)[nH]c(=O)c2c1C(F)(F)F)c1ccc(F)cc1 [Example 1-19]", "reported value": 9.15}
{"molecule": "Cc1ccc(-c2cn3nc(C(=O)NC4(c5ccc(F)cc5)CN(C)C4)c(C(F)(F)F)c3c(=O)[nH]2)cc1Cl [Example 1-153]", "reported value": 8.27}
{"molecule": "Cc1cc(-c2cn3nc(C(=O)NC(C)C4CCC4)c(C(F)(F)F)c3c(=O)[nH]2)ccc1Cl (single isomer, unassigned) [6-224]", "reported value": 8.70}
{"molecule": "Cc1cc(-c2cn3nc(C(=O)N[C@@H](c4ccc(F)cc4)C(F)(F)CO)c(C(F)(F)C(F)(F)F)c3c(=O)[nH]2)ccc1Cl [6-477]", "reported value": 9.36}
{"molecule": "COc1ccc([C@@H](C)NC(=O)c2cc3c(=O)[nH]c(-c4ccc5c(c4F)OCCO5)c(F)n3n2)cn1 [Example 1-111]", "reported value": 8.06}
{"molecule": "COc1ccc(CNC(=O)c2cc3c(=O)[nH]c(-c4ccc(C)c(Cl)c4)cn3n2)cc1OC [6-80]", "reported value": 8.66}
{"molecule": "Cc1ccc(-c2cn3nc(C(=O)NCC(O)C(F)(F)F)c(C(F)(F)F)c3c(=O)[nH]2)cc1Cl (racemic) [6-158]", "reported value": 8.81}
{"molecule": "CC(C)(C)OC(=O)NCC(NC(=O)c1cc2c(=O)[nH]c(-c3ccc4cccnc4c3)cn2n1)c1ccc(F)cc1 (stereo not shown) [6-29]", "reported value": 8.64}
{"molecule": "Cc1ccc(-c2cn3nc(C(=O)N[C@H](C)c4ccc(C(F)(F)F)cc4)cc3c(=O)[nH]2)cc1C [Example 1-15]", "reported value": 8.77}
{"molecule": "O=C(NC1(c2ccc(F)cc2)CN(C(CF)CF)C1)c1nn2cc(-c3ccc4ccccc4c3)[nH]c(=O)c2c1C(F)(F)F [Example 1-177]", "reported value": 8.30}
